- Method Notes: chemical genetic growth profiling, strain panel (AID 1159580);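 also: tested at 20 µM; growth read once vehicle control cultures reached saturation at 30 °C; 1 = growth at the plate median or of vehicle wells; lower values mean less growth of the strain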
- Applied Conditions: S. cerevisiae deletion strains, growth OD, locus YML120C, strain ndi1, active compounds read low
About 2,000 (36%) of roughly 5,500 compounds were called active. About 18% were inconclusive and are not listed. Some of the results follow.
Experimental Endpoint: normalized growth
Returns: the value as a bare number; no unit string appended.

compound=Nc1ccc(C(=O)O)cc1 observed_measurement=1.04
compound=CNNC observed_measurement=1.03

Noted for COC(=O)c1c(OC)cc2c(c1C)Oc1c(Cl)c(OC(C)=O)c(Cl)c(C)c1C(=O)O2 : its normalized growth reads 1.01

====

- Method Notes: chemical genetic growth profiling, strain panel (AID 1159580)
- Applied Conditions: S. cerevisiae deletion strains, growth OD, locus YDR052C, strain DBF4
Among all 5,500 compounds or so, about 2,000 (36%) were called active. About 18% were inconclusive and are not listed. Rule as the data show it: active = normalized growth mostly below about 0.91 (no sharp cut-off); inconclusive = no clear call, values can overlap the other calls; inactive = mostly above about 0.92. This is one part of the list.
One label from this list, please: 1.0 = active, 0.0 = inactive

Please review the entries below; each comes with its answer.
smiles_data=COC(=O)C1=C(Nc2ccccc2NS(=O)(=O)c2ccc(C(F)(F)F)cc2Cl)CSC1 classification=0.0
smiles_data=Brc1ccc(-c2csc(-c3ccncc3)n2)cc1 classification=1.0

## Task # lookup: test call for COC(=O)c1sccc1NS(=O)(=O)c1cc(Cl)cc(Cl)c1
## Result 0.0

## Task # lookup: test call for Cc1cc(/C(N)=N\OC(=O)C(C)(C)C)cc(/C(N)=N\OC(=O)C(C)(C)C)c1
## Result 0.0

## Task # lookup: test call for Cc1ccc(-c2csc(-c3ccncc3)n2)cc1
## Result 0.0

====

normalized growth overview
- Method Notes: chemical genetic growth profiling, strain panel (AID 1159580)
- Applied Conditions: S. cerevisiae strains, growth OD, strain wild type, active compounds read low
About 2,000 (36%) of roughly 5,500 compounds were called active. Roughly 18% stayed inconclusive and do not appear here. This is one part of the list.

Noted for CC(=O)c1cc(CC=C(C)C)c(O)c(CC=C(C)C)c1 : its normalized growth reads 0.957 (inactive)

Noted for CC[N+](C)(C)c1cccc(O)c1 : its normalized growth reads 0.996 (inactive)

Noted for Cc1cc(=O)oc2cc(O)c(O)cc12 : its normalized growth reads 1.01 (inactive)

====

- Method Notes: chemical genetic growth profiling, strain panel (AID 1159580)
- Applied Conditions: S. cerevisiae deletion strains, growth OD, locus YNL183C, strain NPR1, active compounds read low
The whole screen tested about 5,500 compounds, of which about 2,000 (36%) were called active. Not shown: some 18% with an inconclusive outcome. The list shows a part of the results.
Experimental Endpoint: normalized growth
Returns: the value as a bare number; no unit string appended.

Record excerpt, results attached:
molecule=C=C1c2cccc(O)c2C(O)=C2C(=O)[C@]3(O)C(O)=C(C(N)=O)C(=O)[C@@H](N(C)C)[C@@H]3[C@@H](O)[C@H]12 experimental_endpoint="normalized growth" observed_measurement=0.922
molecule="CCC(C)C(=O)OC1[C@@H]2CC3=C4CC(=O)O[C@@H](c5ccoc5)[C@]4(C)CCC3[C@@](C)(C2=O)[C@@H](CC(=O)OC)C1(C)C (some centres undefined)" experimental_endpoint="normalized growth" observed_measurement=0.927
molecule=COc1cc(C/C=C/c2ccccc2)c(OC)cc1O experimental_endpoint="normalized growth" observed_measurement=1

Let's switch to this molecule now.
Noted for CNCCCC12CCC(c3ccccc31)c1ccccc12 : its normalized growth reads 0.949

====

normalized growth overview
- Method Notes: chemical genetic growth profiling, strain panel (AID 1159580);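 also: tested at 20 µM; growth read once vehicle control cultures reached saturation at 30 °C; 1 = growth at the plate median or of vehicle wells; lower values mean less growth of the strain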
- Applied Conditions: S. cerevisiae deletion strains, growth OD, strain wtn01, active compounds read low
Out of some 5,500 compounds screened, about 2,000 (36%) were called active. Roughly 18% stayed inconclusive and do not appear here. The list shows a part of the results.
Returns: the value as a bare number; no unit string appended.

Record excerpt, results attached:
molecule=CC(=O)Oc1c(Cl)c(C)c2c(c1Cl)OC(=O)c1c(C)c(Cl)c(OC(C)=O)c(Cl)c1O2 observed_measurement=0.856
molecule="CC(CCc1ccccc1)NCC(O)c1ccc(O)c(C(N)=O)c1 (stereo unspecified)" observed_measurement=1.03
molecule="CC(C)c1ccc2c(c1)CCC1[C@](C)(CN)CCC[C@]21C (stereo partly specified)" observed_measurement=0.146
molecule=COC(=O)c1c(C)c2c(c(C)c1OC)OC(=O)c1c(C)c(Cl)c(OC)c(Cl)c1O2 observed_measurement=1.01
molecule="Cc1ccc2c(c1)C1(C)CCCC(C)(C(=O)O)C1CC2 (stereo unspecified)" observed_measurement=0.999
molecule="CC12CCC(O)CC1CCC1C2[C@H](O)CC2(C)C(C3=CC(=O)OC3)CCC12O (stereo partly specified)" observed_measurement=1.01
molecule="CC(=O)OC1CCC2(C)C(CC(OC(C)=O)C3(C)C4=CC(=O)OC(c5ccoc5)C4(C)CCC23)C1(C)C (stereo unspecified)" observed_measurement=0.999
molecule="CC(Cc1cccc(C(F)(F)F)c1)NCCOC(=O)c1ccccc1 (stereo unspecified)" observed_measurement=0.978
molecule="CC(=O)O[C@@H]1CC2C(C)(C)[C@H](O)C=C[C@]2(C)C2CC[C@]3(C)C(=CC(=O)O[C@H]3c3ccoc3)[C@@]21C (stereo partly specified)" observed_measurement=1
molecule="O=P1(N(CCCl)CCCl)NCCCO1 (stereo unspecified)" observed_measurement=1.06

Noted for COC(=O)c1c(C)c2c(c(C)c1O)OC(=O)c1c(C)c(Cl)c(O)c(Cl)c1O2 : its normalized growth reads 1

Noted for CC(C)CC1NC(=O)CNC1=O (stereo unspecified) : its normalized growth reads 1.02

====

- Method Notes: chemical genetic growth profiling, strain panel (AID 1159580);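 also: tested at 20 µM; growth read once vehicle control cultures reached saturation at 30 °C; 1 = growth at the plate median or of vehicle wells; lower values mean less growth of the strain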
- Applied Conditions: S. cerevisiae deletion strains, growth OD, locus YPL256C, strain CLN2
About 2,000 (36%) of roughly 5,500 compounds were called active. Not shown: some 18% with an inconclusive outcome. Rule as the data show it: active = normalized growth mostly below about 0.91 (no sharp cut-off); inconclusive = no clear call, values can overlap the other calls; inactive = mostly above about 0.92. Some of the results follow.
One label from this list, please: yes for active, no for inactive

compound=COc1ccc2cc(CCC(C)=O)ccc2c1 classification=no
compound=Cc1nc(N)cc(C[n+]2csc(CCO)c2C)n1 classification=no
compound="CCC(C)[C@H]1O[C@]2(CC[C@@H]1C)C[C@@H]1C[C@@H](C/C=C(\\C)[C@@H](OC3C[C@H](OC)C(O[C@H]4C[C@H](OC)[C@@H](O)[C@H](C)O4)[C@H](C)O3)[C@@H](C)/C=C/C=C3\\CO[C@@H]4[C@H](O)C(C)=C[C@@H](C(=O)O1)[C@]34O)O2 (some centres undefined)" classification=no
compound=O=C(NOC(=O)c1ccccc1)c1ccccc1 classification=yes

## Task # lookup: test call for NS(=O)(=O)c1cc2c(cc1Cl)NC(CSCc1ccccc1)=NS2(=O)=O
## Result no

## Task # lookup: test call for CC1=CC(=O)c2c(O)cccc2C1=O
## Result yes

## Task # lookup: test call for OC(COc1ccc(F)cc1)(c1ccc(Cl)cc1)c1ccc(Cl)cc1
## Result no

## Task # lookup: test call for Cc1cc(=O)[nH]c(=S)[nH]1
## Result no

## Task # lookup: test call for CC(=O)O[C@@H]1C=C[C@@]2(C)C(C[C@@H](OC(C)=O)[C@@]3(C)C4=CC(=O)O[C@@H](c5ccoc5)[C@]4(C)CCC23)C1(C)C (some centres undefined)
## Result no

## Task # lookup: test call for CC[N+](C)(C)c1cccc(O)c1
## Result no

## Task # lookup: test call for CCCc1cc(=O)[nH]c(=S)[nH]1
## Result no

## Task # lookup: test call for CC(CCc1ccccc1)NCC(O)c1ccc(O)c(C(N)=O)c1 (centres undefined)
## Result no

## Task # lookup: test call for CC1=CC(=O)c2ccccc2C1=O
## Result yes

## Task # lookup: test call for O=C(O)c1cccnc1
## Result no

====

- Method Notes: chemical genetic growth profiling, strain panel (AID 1159580);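 also: tested at 20 µM; growth read once vehicle control cultures reached saturation at 30 °C; 1 = growth at the plate median or of vehicle wells; lower values mean less growth of the strain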
- Applied Conditions: S. cerevisiae deletion strains, growth OD, locus YML032C, strain rad52
The campaign covered roughly 5,500 compounds. About 2,000 (36%) were called active. Inconclusive results (about 18%) are left out. No stated cut-off is given here; in the data, active means normalized growth mostly below about 0.91 (no sharp cut-off); inconclusive means no clear call, values can overlap the other calls; inactive means mostly above about 0.92. This is one part of the list.
One label from this list, please: active, inactive

## Task # lookup: test call for OC[C@H]1O[C@@H](O[C@@H]2[C@@H](CO)O[C@](O)(CO)[C@H]2O)[C@H](O)[C@@H](O)[C@H]1O
## Result inactive

## Task # lookup: test call for CC(=O)O[C@@H]1CC2C(C)(C)[C@H](O)C=C[C@]2(C)C2CC[C@]3(C)C(=CC(=O)O[C@H]3c3ccoc3)[C@@]21C (stereo partly drawn)
## Result inactive

## Task # lookup: test call for CC(=O)Oc1ccc(/C=C/c2cc(OC(C)=O)cc(OC(C)=O)c2)cc1
## Result inactive

## Task # lookup: test call for CC(=O)O[C@@H]1C=C[C@@]2(C)C(C[C@@H](OC(C)=O)[C@@]3(C)C4=CC(=O)O[C@@H](c5ccoc5)[C@]4(C)CCC23)C1(C)C (stereo partly drawn)
## Result active

// data source = PubChem BioAssay AID1159580
